src = PubChem BioAssay (EPA / NIEHS)

Read-out: Ezrin (EZR), EZR (gene 7430)
assay-name: LTEA_HepaRG_EZR: Life Technologies and Expression Analysis (LTEA) Assay for Ezrin (EZR) using HepaRG (AID 2283491)
study-conditions: mRNA level, 48 h; actives raise or lower the signal
Calls of active or inactive are those of the source. Rule for the calls: active = hit-call score of the fitted dose curve at least 0.9, where 1 is the maximum; inactive = score below 0.9.
// one of True for active, False for inactive, no free text

# count of solved cases: 6
Q: Outcome? COc1cc(OC)nc(NC(=O)NS(=O)(=O)c2ncccc2OCC(F)(F)F)n1
A: True

Q: Outcome? O=C(O)c1c(Cl)ccc2cc(Cl)cnc12
A: False

Q: Outcome? Clc1nc(Cl)nc(Nc2ccccc2Cl)n1
A: False

Q: Outcome? Nc1c(Cl)c(F)nc(OCC(=O)O)c1Cl
A: False

Q: Outcome? CC(C)N1C(=O)N(c2ccccc2)CSC1=NC(C)(C)C
A: True

Q: Outcome? CCN(CC)C(=O)C(C)Oc1cccc2ccccc12 (configuration not stated)
A: False

Could you now consider this next compound?
Q: Outcome? COCC(C)N(C(=O)CCl)c1c(C)csc1C (configuration not stated)
A: False

###

assay-name: ATG_Oct_MLP_CIS: Attagene CIS-FACTORIAL HepG2 Assay for human Octamer-Binding Transcription Factor (Oct) (AID 2282993)
study-conditions: HepG2 Attagene cis-factorial Oct reporter, mRNA; actives raise or lower the signal
Calls of active or inactive are those of the source. How the source made its calls: active means hit-call score of the fitted dose curve at least 0.9, where 1 is the maximum; inactive means score below 0.9.
experimental-endpoint: AC50

For record CC(C)(C)C(=O)C(Oc1ccc(Cl)cc1)n1cncn1 (configuration not stated) the listed AC50 is 19.4 µM (active)

For record CSC(=O)c1c(C(F)F)nc(C(F)(F)F)c(C(=O)SC)c1CC(C)C the listed AC50 is inactive

For record CC(C)C1(C)N=C(c2ncccc2C(=O)O)NC1=O (configuration not stated) the listed AC50 is inactive

For record CC(C)N1C(=O)c2ccccc2NS1(=O)=O the listed AC50 is inactive

For record CCOc1nc(C(Cl)(Cl)Cl)ns1 the listed AC50 is 43.5 µM (active)

For record COC(=O)c1c(C(F)F)nc(C(F)(F)F)c(C2=NCCS2)c1CC(C)C the listed AC50 is 9.92 µM (active)

For record CCCCC(C#N)(Cn1cncn1)c1ccc(Cl)cc1 (configuration not stated) the listed AC50 is inactive

For record CCN(CC)c1nc(C)cc(OP(=S)(OC)OC)n1 the listed AC50 is 8.94 µM (active)

For record Cc1nc(N(C)C)nc(OC(=O)N(C)C)c1C the listed AC50 is inactive

For record CC1(C)CON(Cc2ccccc2Cl)C1=O the listed AC50 is inactive

---
For record CC(C)Oc1cccc(NC(=O)c2ccccc2C(F)(F)F)c1 the listed AC50 is 11.7 µM (active)

For record O=P(O)(O)CCCl the listed AC50 is inactive

For record O=c1n(Cl)c(=O)n(Cl)c(=O)n1Cl the listed AC50 is inactive

For record N#CN=C1SCCN1Cc1ccc(Cl)nc1 the listed AC50 is inactive

###

Read-out: xenobiotic metabolism (CYP1A1), CYP1A1 (gene 1543)
assay-name: CLD_CYP1A1_48hr: CellzDirect (CLD) Gene Expression Assay for xenobiotic metabolism (CYP1A1) at 48 hours (AID 2283705)
Results filed as inconclusive are left out. Calls of active or inactive are those of the source. Rule for the calls: active = hit-call score of the fitted dose curve at least 0.9, where 1 is the maximum; inconclusive = response in the unintended direction; inactive = score below 0.9.
experimental-endpoint: AC50

For record CCN(CC)c1nc(C)cc(OP(=S)(OC)OC)n1 the listed AC50 is 9.28 µM (active)

For record O=c1n(Cl)c(=O)n(Cl)c(=O)n1Cl the listed AC50 is inactive

For record COC(=O)N(C(=O)N1CO[C@@]2(C(=O)OC)Cc3cc(Cl)ccc3C2=N1)c1ccc(OC(F)(F)F)cc1 the listed AC50 is 2.72 µM (active)

For record O=C1C2CC=CCC2C(=O)N1SC(Cl)(Cl)Cl (stereo not given) the listed AC50 is inactive

For record CC1(C)C(C(=O)OC(C#N)c2cccc(Oc3ccccc3)c2)C1(C)C (stereo not given) the listed AC50 is inactive

---
For record Nc1c(Cl)c(F)nc(OCC(=O)O)c1Cl the listed AC50 is inactive

For record CCCN(CC)CC1COC2(CCC(C(C)(C)C)CC2)O1 (stereo not given) the listed AC50 is 3.97 µM (active)

For record CC1(C)C(C=C(Cl)Cl)C1C(=O)OC(C#N)c1cccc(Oc2ccccc2)c1 (stereo not given) the listed AC50 is inactive

For record COc1cc(Cl)c(OC)cc1Cl the listed AC50 is 3.97 µM (active)

For record CCNP(=S)(OC)O/C(C)=C/C(=O)OC(C)C (stereo not given) the listed AC50 is 3.99 µM (active)

For record O=C(O)c1c(Cl)ccc2cc(Cl)cnc12 the listed AC50 is inactive

For record COc1cc(OC)nc(NC(=O)NS(=O)(=O)c2ncccc2OCC(F)(F)F)n1 the listed AC50 is inactive

For record CO/N=C(/C1=NOCCO1)c1ccccc1Oc1ncnc(Oc2ccccc2Cl)c1F the listed AC50 is 32.4 µM (active)
